Please go through the items and note down their inhibition at 1000 ppm.
- Measured on: Porcine pancreatic phospholipase A2 (Sus scrofa)
- Construct: purchased Boehringer Mannheim·Yamanouchi K.K. 161454·122416
- Sequence (P00592 23-146): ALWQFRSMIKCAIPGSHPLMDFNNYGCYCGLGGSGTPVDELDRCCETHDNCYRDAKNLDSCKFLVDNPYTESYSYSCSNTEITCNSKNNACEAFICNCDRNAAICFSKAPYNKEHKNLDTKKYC
- Assay: Phospholipase A2 inhibitory activity, method B (L-α-dipalmitoylphosphatidylcholine substrate)
- Assay type: biochemical
- Test context: 1,000 ppm, 37°C for 30 minutes, read-out: % inhibition of PLA2 (1,000 ppm)
// note: answer is a bare numeric in %

Could you share which inhibition at 1000 ppm value was measured for CCCOC(=O)Nc1cc(C(F)(F)F)cnc1NS(=O)(=O)N(C)C ? 53

Could you share which inhibition at 1000 ppm value was measured for CS(=O)(=O)Nc1ncc(C(F)(F)F)cc1NC(=O)C1CC=CCC1 (centres unmarked) ? 81

Could you share which inhibition at 1000 ppm value was measured for CCS(=O)(=O)Nc1ncc(C(F)(F)F)cc1NC(=O)c1ccc(C(F)(F)F)cc1 ? 83

Could you share which inhibition at 1000 ppm value was measured for CCCCS(=O)(=O)Nc1ncc(C(F)(F)F)cc1NC(=O)C(F)(F)Cl ? 61

Could you share which inhibition at 1000 ppm value was measured for O=C(Nc1cc(C(F)(F)F)cnc1NS(=O)(=O)C(F)(F)F)c1cccs1 ? 75

Could you share which inhibition at 1000 ppm value was measured for CN(C)S(=O)(=O)Nc1ncc(C(F)(F)F)cc1NC(=O)c1cccc(F)c1 ? 35

Could you share which inhibition at 1000 ppm value was measured for O=C(Nc1cc(C(F)(F)F)cnc1NS(=O)(=O)C(F)(F)F)C1CCCCC1 ? 81

Could you share which inhibition at 1000 ppm value was measured for CC(=O)OCC(=O)Nc1cc(C(F)(F)F)cnc1NS(C)(=O)=O ? 34

Could you share which inhibition at 1000 ppm value was measured for CS(=O)(=O)Nc1ncc(C(F)(F)F)cc1NC(=O)CC1CCCC1 ? 53

Could you share which inhibition at 1000 ppm value was measured for COS(=O)(=O)Nc1ncc(C(F)(F)F)cc1NC(=O)C1CCCCC1 ? 52

Could you share which inhibition at 1000 ppm value was measured for CS(=O)(=O)Nc1ncc(C(F)(F)F)cc1NC(=O)Cc1ccccc1 ? 41

Could you share which inhibition at 1000 ppm value was measured for CS(=O)(=O)Nc1ncc(C(F)(F)F)cc1NC(=O)c1cccc(Cl)c1 ? 65

Could you share which inhibition at 1000 ppm value was measured for CS(=O)(=O)Nc1ncc(C(F)(F)F)cc1NC(=O)OC1CCCCC1 ? 90

Could you share which inhibition at 1000 ppm value was measured for CCS(=O)(=O)Nc1ncc(C(F)(F)F)cc1NC(=O)C1CC=CCC1 (centres unmarked) ? 85

Could you share which inhibition at 1000 ppm value was measured for CN(C)S(=O)(=O)Nc1ncc(C(F)(F)F)cc1NC(=O)C1CCCC1 ? 41

Could you share which inhibition at 1000 ppm value was measured for CCOS(=O)(=O)Nc1ncc(C(F)(F)F)cc1NC(=O)c1ccc2c(c1)CCC2 ? 84

Could you share which inhibition at 1000 ppm value was measured for CCCCCCCC(=O)Nc1cc(C(F)(F)F)cnc1NS(C)(=O)=O ? 86

Could you share which inhibition at 1000 ppm value was measured for CS(=O)(=O)Nc1ncc(C(F)(F)F)cc1NC(=O)C=Cc1ccccc1 ? 77

Could you share which inhibition at 1000 ppm value was measured for CCc1ccc(C(=O)Nc2cc(C(F)(F)F)cnc2NS(C)(=O)=O)cc1 ? 94

Could you share which inhibition at 1000 ppm value was measured for CCS(=O)(=O)Nc1ncc(C(F)(F)F)cc1NC(=O)C1CCCCCC1 ? 88

Could you share which inhibition at 1000 ppm value was measured for CS(=O)(=O)Nc1ncc(C(F)(F)F)cc1NC(=O)C=Cc1cccs1 ? 73

Could you share which inhibition at 1000 ppm value was measured for CCCCS(=O)(=O)Nc1ncc(C(F)(F)F)cc1NC(=O)C1CCCCC1 ? 100

Could you share which inhibition at 1000 ppm value was measured for CS(=O)(=O)Nc1ncc(C(F)(F)F)cc1NC(=O)CCc1ccccc1 ? 61

Could you share which inhibition at 1000 ppm value was measured for CCOS(=O)(=O)Nc1ncc(C(F)(F)F)cc1NC(=O)C1CCCCC1 ? 65

Could you share which inhibition at 1000 ppm value was measured for CS(=O)(=O)Nc1ncc(C(F)(F)F)cc1NC(=O)c1ccc(F)c(F)c1 ? 61

Could you share which inhibition at 1000 ppm value was measured for CCCCCCC(=O)Nc1cc(C(F)(F)F)cnc1NS(C)(=O)=O ? 78

Could you share which inhibition at 1000 ppm value was measured for O=C(Nc1cc(C(F)(F)F)cnc1NS(=O)(=O)c1cccs1)c1ccc2c(c1)CCC2 ? 89

Could you share which inhibition at 1000 ppm value was measured for CCCOC(=O)Nc1cc(C(F)(F)F)cnc1NS(=O)(=O)C(C)C ? 78

Could you share which inhibition at 1000 ppm value was measured for CCC(C(=O)Nc1cc(C(F)(F)F)cnc1NS(C)(=O)=O)c1ccccc1 (centres unmarked) ? 52

Could you share which inhibition at 1000 ppm value was measured for CN(C)S(=O)(=O)Nc1ncc(C(F)(F)F)cc1NC(=O)C(F)(F)C(F)(F)F ? 79

Could you share which inhibition at 1000 ppm value was measured for CS(=O)(=O)Nc1ncc(C(F)(F)F)cc1NC(=O)c1cc2ccccc2s1 ? 93

Could you share which inhibition at 1000 ppm value was measured for CS(=O)(=O)Nc1ncc(C(F)(F)F)cc1NC(=O)C#Cc1ccccc1 ? 81

Could you share which inhibition at 1000 ppm value was measured for Cc1cccc(C(=O)Nc2cc(C(F)(F)F)cnc2NS(C)(=O)=O)c1 ? 51

Could you share which inhibition at 1000 ppm value was measured for CCS(=O)(=O)Nc1ncc(C(F)(F)F)cc1NC(=O)C(F)(F)C(F)(F)F ? 75

Could you share which inhibition at 1000 ppm value was measured for CS(=O)(=O)Nc1ncc(C(F)(F)F)cc1NC(=O)c1ccc2c(c1)CCCC2 ? 86

====

- Assay: Acute toxicity, intravenous injection (LD50)
- Assay type: in vivo
- Test context: mouse, in vivo, iv, ddy male mice, sodium salt, mortality over one week
Please go through the items and note down their LD50 at 168 h.

Could you share which LD50 at 168 h value was measured for C/C=C/C(=O)Nc1cc(C(F)(F)F)cnc1NS(C)(=O)=O ? 237 mg/kg

Could you share which LD50 at 168 h value was measured for CS(=O)(=O)Nc1ncc(C(F)(F)F)cc1NC(=O)c1ccc(F)cc1 ? 50 to 100 mg/kg

Could you share which LD50 at 168 h value was measured for CS(=O)(=O)Nc1ncc(C(F)(F)F)cc1NC(=O)C1CC=CCC1 (stereo not drawn) ? > 80 mg/kg

Could you share which LD50 at 168 h value was measured for CS(=O)(=O)Nc1ncc(C(F)(F)F)cc1NC(=O)Cc1cccs1 ? > 80 mg/kg

Could you share which LD50 at 168 h value was measured for CS(=O)(=O)Nc1ncc(C(F)(F)F)cc1NC(=O)C1CCCCC1 ? > 25 mg/kg

Could you share which LD50 at 168 h value was measured for C=CC(=O)Nc1cc(C(F)(F)F)cnc1NS(=O)(=O)CC ? 175 mg/kg

Could you share which LD50 at 168 h value was measured for CS(=O)(=O)Nc1ncc(C(F)(F)F)cc1NC(=O)c1cc2ccccc2s1 ? > 40 mg/kg

Could you share which LD50 at 168 h value was measured for CS(=O)(=O)Nc1ncc(C(F)(F)F)cc1NC(=O)c1ccccc1 ? 78 mg/kg

Could you share which LD50 at 168 h value was measured for CS(=O)(=O)Nc1ncc(C(F)(F)F)cc1NC(=O)C1CCCC1 ? 98 mg/kg

Could you share which LD50 at 168 h value was measured for CCCC(=O)Nc1cc(C(F)(F)F)cnc1NS(C)(=O)=O ? 100 to 150 mg/kg

Could you share which LD50 at 168 h value was measured for CS(=O)(=O)Nc1ncc(C(F)(F)F)cc1NC(=O)Cc1ccccc1 ? > 60 mg/kg

Could you share which LD50 at 168 h value was measured for CCS(=O)(=O)Nc1ncc(C(F)(F)F)cc1NC(=O)C(F)(F)C(F)(F)F ? 50 to 100 mg/kg

Could you share which LD50 at 168 h value was measured for CS(=O)(=O)Nc1ncc(C(F)(F)F)cc1NC(=O)c1cccc(C(F)(F)F)c1 ? > 80 mg/kg

Could you share which LD50 at 168 h value was measured for CC(=O)OCC(=O)Nc1cc(C(F)(F)F)cnc1NS(C)(=O)=O ? > 130 mg/kg

Could you share which LD50 at 168 h value was measured for CCCS(=O)(=O)Nc1ncc(C(F)(F)F)cc1NC(=O)C(F)(F)C(F)(F)F ? > 100 mg/kg

Could you share which LD50 at 168 h value was measured for CCCCCC(=O)Nc1cc(C(F)(F)F)cnc1NS(C)(=O)=O ? > 100 mg/kg

Could you share which LD50 at 168 h value was measured for CS(=O)(=O)Nc1ncc(C(F)(F)F)cc1NC(=O)C(F)(F)Cl ? > 150 mg/kg

Could you share which LD50 at 168 h value was measured for CCS(=O)(=O)Nc1ncc(C(F)(F)F)cc1NC(=O)C1CCCCC1 ? 58 mg/kg

Could you share which LD50 at 168 h value was measured for CS(=O)(=O)Nc1ncc(C(F)(F)F)cc1NC(=O)C(F)(F)C(F)(F)F ? > 70 mg/kg

Could you share which LD50 at 168 h value was measured for CC=CC=CC(=O)Nc1cc(C(F)(F)F)cnc1NS(C)(=O)=O ? > 80 mg/kg

Could you share which LD50 at 168 h value was measured for C=CC(=O)Nc1cc(C(F)(F)F)cnc1NS(C)(=O)=O ? > 150 mg/kg

Could you share which LD50 at 168 h value was measured for O=C(Nc1cc(C(F)(F)F)cnc1NS(=O)(=O)c1ccccc1)C(F)(F)F ? > 150 mg/kg

Could you share which LD50 at 168 h value was measured for CS(=O)(=O)Nc1ncc(C(F)(F)F)cc1NC(=O)c1cccs1 ? 83 mg/kg

Could you share which LD50 at 168 h value was measured for CS(=O)(=O)Nc1ncc(C(F)(F)F)cc1NC(=O)C(F)(F)F ? > 150 mg/kg

Could you share which LD50 at 168 h value was measured for CS(=O)(=O)Nc1ncc(C(F)(F)F)cc1NC(=O)c1ccccc1F ? 83 mg/kg

Could you share which LD50 at 168 h value was measured for CS(=O)(=O)Nc1ncc(C(F)(F)F)cc1NC(=O)c1ccc2c(c1)CCC2 ? 75 mg/kg

Could you share which LD50 at 168 h value was measured for CCCCC(=O)Nc1cc(C(F)(F)F)cnc1NS(C)(=O)=O ? 50 to 100 mg/kg
